# System: HDAC
# Protocol description: Whole-cell HDAC inhibition assay in HCT116 cells
# Type: cell-based, human
# Condition: HCT116, 18 h, Boc-Lys(ε-Ac)-AMC substrate
Measure: IC50 (µM)
The reply should be a number in µM, with the unit left off.

Check out these entries, answers already filled in.
Molecule	IC50 / µM
CC(C)=CCc1c2c(c(O)c3c1O[C@@H](c1ccc(O)cc1)[C@@H]3c1cc(O)cc(O)c1)C(=O)C[C@@H](c1ccc(O)cc1O)O2 [Compound 5, alopecurone P]	22.2
COc1c(C2COc3cc(O)c(CC=C(C)C)c(O)c3C2=O)ccc(O)c1CC=C(C)C (centres unmarked) [Compound 1, isosophoranone]	26.5

Let us move to another entry and its IC50.
Q: Look up IC50 with HDAC for this molecule: C=C(C)C(CC=C(C)C)Cc1c2c(c(O)c3c1OC(c1ccc(O)cc1)C3c1cc(O)cc(O)c1)C(=O)CC(c1ccc(O)cc1O)O2 (centres unmarked) [Compound 4, alopecurone J]
Result: 0.08
